Target: aromatase (CYP19A) (Homo sapiens)
Construct: purchased Bio Vision
Sequence (P11511 whole entry): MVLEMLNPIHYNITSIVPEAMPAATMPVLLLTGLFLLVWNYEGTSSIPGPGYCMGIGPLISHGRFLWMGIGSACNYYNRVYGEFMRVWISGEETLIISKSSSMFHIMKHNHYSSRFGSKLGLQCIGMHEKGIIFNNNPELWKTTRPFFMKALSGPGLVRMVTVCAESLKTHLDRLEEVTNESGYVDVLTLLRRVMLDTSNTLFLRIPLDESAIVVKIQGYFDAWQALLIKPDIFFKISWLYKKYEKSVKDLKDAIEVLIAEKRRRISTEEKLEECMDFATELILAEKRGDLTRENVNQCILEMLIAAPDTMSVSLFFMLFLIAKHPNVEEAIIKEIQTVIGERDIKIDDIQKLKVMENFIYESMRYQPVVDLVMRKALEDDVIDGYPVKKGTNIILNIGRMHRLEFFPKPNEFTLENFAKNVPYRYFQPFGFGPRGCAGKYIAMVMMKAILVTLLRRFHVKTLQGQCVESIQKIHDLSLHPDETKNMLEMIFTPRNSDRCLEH
Assay: Aromatase (CYP19A) inhibitor screening kit (fluorometric)
Type: biochemical
Conditions: in vitro enzymatic inhibition, recombinant human aromatase, mean ± SD; read-out: IC50 Aromatase
Below, each of the compounds is paired with its reported IC50 value.
Write down the numeric answer in µM and omit the unit.

Look over these answered cases.
CC1(C)C[C@H](O)C[C@@]2(C)OC(=O)C=C12 [Compound 3, loliolide] ... 0.208
COc1cc(-c2oc3cc(O)cc(O)c3c(=O)c2OC2OC(CO)C(O)C(O)C2O)ccc1O [Compound 9, isorhamnetin 3-O-β-D-glucopyranoside] ... 0.436
C[C@@H]1O[C@@H](OC[C@H]2O[C@@H](Oc3c(-c4ccc(O)cc4)oc4cc(O)cc(O)c4c3=O)[C@H](O)[C@@H](O)[C@@H]2O)[C@H](O)[C@H](O)[C@H]1O [Compound 8, kaempferol-3-O-rutinoside] ... 0.0928
O=c1c(O[C@@H]2O[C@H](CO)[C@@H](O)[C@H](O)[C@H]2O)c(-c2ccc(O)c(O)c2)oc2cc(O)cc(O)c12 [Compound 7, quercetin-3-O-β-D-glucopyranoside] ... 0.354
C[C@@H]1O[C@@H](OC[C@H]2O[C@@H](Oc3c(-c4ccc(O)cc4)oc4cc(O)cc(O)c4c3=O)[C@H](O[C@@H]3O[C@@H](C)[C@H](O)[C@@H](O)[C@H]3O)[C@@H](O)[C@@H]2O)[C@H](O)[C@H](O)[C@H]1O ... 0.0774
C[C@@H]1O[C@@H](O[C@H]2[C@H](Oc3c(-c4ccc(O)cc4)oc4cc(O)cc(O)c4c3=O)O[C@H](CO)[C@@H](O)[C@@H]2O)[C@H](O)[C@H](O)[C@H]1O ... 0.335

Need IC50, item COC(=O)c1cc(O)c(O)c(O)c1 [Compound 2, methyl gallate]
0.0941

Need IC50, item C[C@@H]1O[C@@H](OC[C@H]2O[C@@H](Oc3c(-c4ccc(O)c(O)c4)oc4cc(O)cc(O)c4c3=O)[C@H](O)[C@@H](O)[C@@H]2O)[C@H](O)[C@H](O)[C@H]1O [Compound 4, quercetin-3-O-rutinoside]
0.148

====

Target: UniProt:P00533
parameter.measured: pIC50
Scale: pIC50 equals -log10([C]), with [C] in mol/L.

COC(=O)c1cc(O)c(O)c(O)c1 [Compound 2, methyl gallate] ... 7.43
CC1(C)C[C@H](O)C[C@@]2(C)OC(=O)C=C12 [Compound 3, loliolide] ... 7.16
C[C@@H]1O[C@@H](OC[C@H]2O[C@@H](Oc3c(-c4ccc(O)cc4)oc4cc(O)cc(O)c4c3=O)[C@H](O)[C@@H](O)[C@@H]2O)[C@H](O)[C@H](O)[C@H]1O [Compound 8, kaempferol-3-O-rutinoside] ... 7.39
C[C@@H]1N[C@@H]2CCCCCCCC(=O)O[C@H]3CC[C@@H](CCCCCCCC(=O)O[C@H]1CC2)N[C@H]3C ... 7.32
COc1cc(-c2oc3cc(O)cc(O)c3c(=O)c2OC2OC(CO)C(O)C(O)C2O)ccc1O [Compound 9, isorhamnetin 3-O-β-D-glucopyranoside] ... 7.00

Now take the following compound into account.
Need pIC50, item C[C@@H]1O[C@@H](OC[C@H]2O[C@@H](Oc3c(-c4ccc(O)c(O)c4)oc4cc(O)cc(O)c4c3=O)[C@H](O)[C@@H](O)[C@@H]2O)[C@H](O)[C@H](O)[C@H]1O [Compound 4, quercetin-3-O-rutinoside]
7.35

====

Molecular target: EGFR^wt kinase (Homo sapiens)
Sequence (P00533 25-1210): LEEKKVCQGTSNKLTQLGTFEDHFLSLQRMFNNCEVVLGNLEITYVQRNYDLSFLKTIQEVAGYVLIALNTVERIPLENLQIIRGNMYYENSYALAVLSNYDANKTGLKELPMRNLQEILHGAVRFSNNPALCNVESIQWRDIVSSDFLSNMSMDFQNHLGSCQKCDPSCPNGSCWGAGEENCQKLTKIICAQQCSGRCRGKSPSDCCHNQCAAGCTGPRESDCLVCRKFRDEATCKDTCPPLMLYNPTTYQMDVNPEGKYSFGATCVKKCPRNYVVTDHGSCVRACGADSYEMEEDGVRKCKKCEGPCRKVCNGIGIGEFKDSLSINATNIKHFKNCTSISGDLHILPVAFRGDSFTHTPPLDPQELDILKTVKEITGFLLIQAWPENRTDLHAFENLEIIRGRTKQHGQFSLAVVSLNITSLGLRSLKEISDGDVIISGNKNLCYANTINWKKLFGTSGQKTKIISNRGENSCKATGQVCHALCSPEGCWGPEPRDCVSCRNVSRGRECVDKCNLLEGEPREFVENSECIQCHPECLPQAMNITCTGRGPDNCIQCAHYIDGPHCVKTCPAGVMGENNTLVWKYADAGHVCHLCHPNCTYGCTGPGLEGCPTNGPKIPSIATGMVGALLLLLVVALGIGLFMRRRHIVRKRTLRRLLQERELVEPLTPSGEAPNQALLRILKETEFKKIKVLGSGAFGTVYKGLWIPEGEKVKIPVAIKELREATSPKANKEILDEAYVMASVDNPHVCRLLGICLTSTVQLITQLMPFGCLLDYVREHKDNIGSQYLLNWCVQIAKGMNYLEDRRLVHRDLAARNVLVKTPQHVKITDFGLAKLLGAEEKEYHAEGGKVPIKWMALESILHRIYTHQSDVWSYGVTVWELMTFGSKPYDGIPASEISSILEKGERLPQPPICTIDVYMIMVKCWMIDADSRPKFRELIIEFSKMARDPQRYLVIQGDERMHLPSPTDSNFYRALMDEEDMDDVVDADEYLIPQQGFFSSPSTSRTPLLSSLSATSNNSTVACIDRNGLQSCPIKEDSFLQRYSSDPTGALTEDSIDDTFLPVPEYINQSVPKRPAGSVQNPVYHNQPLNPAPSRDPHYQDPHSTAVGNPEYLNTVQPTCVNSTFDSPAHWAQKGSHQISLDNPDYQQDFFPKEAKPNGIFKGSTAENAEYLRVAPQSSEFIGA
Below, each of the molecules is paired with its reported IC50 value.
Write down the numeric answer in nM and omit the unit.

// lookup IC50 | system=EGFR^wt kinase (Homo sapiens) | key= C[C@@H]1O[C@@H](OC[C@H]2O[C@@H](Oc3c(-c4ccc(O)cc4)oc4cc(O)cc(O)c4c3=O)[C@H](O[C@@H]3O[C@@H](C)[C@H](O)[C@@H](O)[C@H]3O)[C@@H](O)[C@@H]2O)[C@H](O)[C@H](O)[C@H]1O
89.6

// lookup IC50 | system=EGFR^wt kinase (Homo sapiens) | key= C[C@@H]1O[C@@H](O[C@H]2[C@H](Oc3c(-c4ccc(O)cc4)oc4cc(O)cc(O)c4c3=O)O[C@H](CO)[C@@H](O)[C@@H]2O)[C@H](O)[C@H](O)[C@H]1O
64.5

// lookup IC50 | system=EGFR^wt kinase (Homo sapiens) | key= O=c1c(O[C@@H]2O[C@H](CO)[C@@H](O)[C@H](O)[C@H]2O)c(-c2ccc(O)c(O)c2)oc2cc(O)cc(O)c12 [Compound 7, quercetin-3-O-β-D-glucopyranoside]
83.4
